Recorded values, source ChEMBL document CHEMBL3868624.

- assayed-target: Cholinesterase (Homo sapiens, UniProt P06276)
- Sequence (P06276 whole entry): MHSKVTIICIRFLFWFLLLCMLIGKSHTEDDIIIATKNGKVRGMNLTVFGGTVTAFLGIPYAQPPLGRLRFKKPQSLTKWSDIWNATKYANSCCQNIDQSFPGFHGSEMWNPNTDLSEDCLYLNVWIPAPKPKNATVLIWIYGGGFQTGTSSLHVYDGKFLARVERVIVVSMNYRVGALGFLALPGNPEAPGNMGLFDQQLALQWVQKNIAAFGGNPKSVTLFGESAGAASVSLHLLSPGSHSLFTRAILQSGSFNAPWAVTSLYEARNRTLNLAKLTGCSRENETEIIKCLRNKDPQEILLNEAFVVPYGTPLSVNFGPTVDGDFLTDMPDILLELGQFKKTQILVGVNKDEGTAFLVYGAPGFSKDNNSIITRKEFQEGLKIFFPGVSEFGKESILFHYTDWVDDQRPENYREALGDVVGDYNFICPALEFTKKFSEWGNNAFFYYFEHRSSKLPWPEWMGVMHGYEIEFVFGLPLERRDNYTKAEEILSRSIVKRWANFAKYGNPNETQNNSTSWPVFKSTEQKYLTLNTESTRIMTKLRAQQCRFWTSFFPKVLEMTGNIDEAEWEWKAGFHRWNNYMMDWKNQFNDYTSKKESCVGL
- test: Inhibition of human serum BChE using S-Butyrylthiocholine iodide as substrate at 10 uM preincubated for 15 mins followed by substrate addition by Ellman's method

compound-structure	inhibition
CCN(C)C(=O)Oc1ccccc1C(=O)/C=C/c1ccc(O)cc1	> 50%
CN(C)C(=O)Oc1cccc(C(=O)/C=C/c2ccc(O)cc2)c1	> 50%
CN(C)C(=O)Oc1ccc(/C=C/C(=O)c2cccc(O)c2)cc1	< 50%
CCN(C)C(=O)Oc1ccc(/C=C/C(=O)c2ccc(O)cc2)cc1	> 50%
CN(C)C(=O)Oc1ccccc1C(=O)/C=C/c1ccc(O)cc1	< 50%
CCN(C)C(=O)Oc1cc(OC(=O)N(C)CC)cc(C(=O)/C=C/c2ccc(O)cc2)c1	< 50%
CCN(C)C(=O)Oc1ccc(C(=O)/C=C/c2ccc(OC)cc2)cc1	> 50%
CN(C)C(=O)Oc1cccc(/C=C/C(=O)c2cccc(O)c2)c1	> 50%
CN(C)C(=O)Oc1ccc(/C=C/C(=O)c2ccc(O)cc2)cc1	> 50%
CCN(C)C(=O)Oc1cccc(C(=O)/C=C/c2ccc(OC)cc2)c1	> 50%

---

- test: Cytotoxicity against human SH-SY5Y cells assessed as cell viability at 6.25 uM after 48 hrs by MTT assay relative to control
- Type: toxicity, cell-based
- test-parameters: read-out: Activity
# viability at 48 h, 6.25 µM values compiled below

compound-structure	viability at 48 h, 6.25 µM / %
CCN(C)C(=O)Oc1ccc(C(=O)/C=C/c2ccc(OC)cc2)cc1	95.5
CCN(C)C(=O)Oc1ccc(/C=C/C(=O)c2ccc(O)cc2)cc1	91.7
CN(C)C(=O)Oc1ccc(/C=C/C(=O)c2ccc(O)cc2)cc1	100
COc1ccc(/C=C/C(=O)c2cccc(OC(=O)N(C)C)c2)cc1	101
CCN(C)C(=O)Oc1cccc(C(=O)/C=C/c2ccc(O)cc2)c1	96.2
CN(C)C(=O)Oc1cccc(/C=C/C(=O)c2cccc(O)c2)c1	85.9

---

- assayed-target: Cholinesterase (Homo sapiens, UniProt P06276)
- test: Inhibition of human serum BChE using S-Butyrylthiocholine iodide as substrate at 10 uM preincubated for 15 mins followed by substrate addition by Ellman's method

compound-structure	inhibition
CCN(C)C(=O)Oc1cccc(/C=C/C(=O)c2cccc(O)c2)c1	> 50%
CN(C)C(=O)Oc1cccc(/C=C/C(=O)c2ccc(O)cc2)c1	> 50%
COc1ccc(/C=C/C(=O)c2cccc(OC(=O)N(C(C)C)C(C)C)c2)cc1	< 50%
CN(C)C(=O)Oc1ccc(C(=O)/C=C/c2ccc(O)cc2)cc1	< 50%
COc1ccc(/C=C/C(=O)c2cccc(O)c2)cc1	< 50%
COc1ccc(/C=C/C(=O)c2ccc(O)cc2)cc1	< 50%
COc1ccc(/C=C/C(=O)c2ccc(OC(=O)N(C)C)cc2)cc1	< 50%
CC(C)N(C(=O)Oc1cccc(C(=O)/C=C/c2ccc(O)cc2)c1)C(C)C	< 50%
COc1ccc(/C=C/C(=O)c2cccc(OC(=O)N(C)C)c2)cc1	> 50%
CCN(CC)C(=O)Oc1cccc(C(=O)/C=C/c2ccc(O)cc2)c1	< 50%
CCN(C)C(=O)Oc1ccc(/C=C/C(=O)c2cccc(O)c2)cc1	> 50%

---

- assayed-target: Acetylcholinesterase (Homo sapiens, UniProt P22303)
- Sequence (P22303 whole entry): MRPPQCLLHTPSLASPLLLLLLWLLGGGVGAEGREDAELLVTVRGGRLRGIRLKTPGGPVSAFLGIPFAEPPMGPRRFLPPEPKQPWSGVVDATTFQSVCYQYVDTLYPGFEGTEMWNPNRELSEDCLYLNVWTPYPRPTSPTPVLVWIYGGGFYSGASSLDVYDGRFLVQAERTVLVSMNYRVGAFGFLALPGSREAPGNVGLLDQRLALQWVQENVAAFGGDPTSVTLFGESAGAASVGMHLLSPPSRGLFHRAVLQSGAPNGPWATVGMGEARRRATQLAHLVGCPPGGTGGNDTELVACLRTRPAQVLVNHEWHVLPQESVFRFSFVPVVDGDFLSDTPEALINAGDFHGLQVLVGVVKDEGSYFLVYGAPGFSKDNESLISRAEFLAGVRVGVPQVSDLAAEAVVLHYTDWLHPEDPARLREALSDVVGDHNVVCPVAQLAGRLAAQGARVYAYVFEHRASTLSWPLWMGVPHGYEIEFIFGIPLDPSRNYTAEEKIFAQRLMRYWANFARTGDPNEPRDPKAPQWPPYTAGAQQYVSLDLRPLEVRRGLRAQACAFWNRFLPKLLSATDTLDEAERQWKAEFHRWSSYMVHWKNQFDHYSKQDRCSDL
- test: Non-competitive inhibition of human recombinant AChE using acetylthiocholine iodide as substrate preincubated for 15 mins followed by substrate addition by Lineweaver-Burk plot analysis
pKi: −log10 of the molar value.

compound-structure	pKi
CN(C)C(=O)Oc1cccc(C(=O)/C=C/c2ccc(O)cc2)c1	6.28
